Reference source: paper PMC4877046

Molecular target: T1, TrmBL2 (Pyrococcus furiosus, UniProt Q8U3H1 1-264)
T1 sequence: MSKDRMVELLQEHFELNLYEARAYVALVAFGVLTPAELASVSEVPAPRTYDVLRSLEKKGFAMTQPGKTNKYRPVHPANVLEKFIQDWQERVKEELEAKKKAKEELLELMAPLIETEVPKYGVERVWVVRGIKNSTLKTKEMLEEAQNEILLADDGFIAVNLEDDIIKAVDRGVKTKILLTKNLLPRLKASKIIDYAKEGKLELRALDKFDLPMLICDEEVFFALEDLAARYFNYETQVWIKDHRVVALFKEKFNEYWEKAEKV
Assay: EMSA; apparent Kd, Hill fit, Hill coefficient 2.9 +/- 0.4; Fig 6 legend gives 2.0 uM; EMSA: PBS, 10 nM DNA, 1 h, room temperature, 8% PAGE in PBS; magnetic tweezers: PBS pH 7.4, 5 mM NaN3, room temperature
Settings: protein: recombinant; chain copies: 2; label: 5'-Cy5
pKd: −log10 of the molar value.

| Binder | pKd |
| --- | --- |
| 60mer ssDNA (ssDNA) DNA: GATATAATATACCTATATCAATGGCCTCCCACGCATAAGCGCAGATACGTTCTGAGGGAA | 5.68 |
